# Measurement Notes: qHTS assay for identifying genotoxic compounds that show differential cytotoxicity against isogenic chicken DT40 cell lines with known DNA damage response pathways - Rad54/Ku70 mutant cell line (AID 743015); also: nearly all actives have a fitted effect of over 60% in size
# Particulars: DT40 Rad54/Ku70 mutant viability, CellTiter-Glo, 40 h; series mostly up to 66.8 µM
Results filed as inconclusive are left out. Calls of active or inactive are those of the source. Calls follow the shape of the dose curve; as a rule, active = well fitted cell-killing curve with a large enough effect in the repeat runs; inconclusive = weak or mixed curves; inactive = no such curve, though single readings can be large or run the other way.
Mark one answer only. Choices: active, inactive

The examples below pair each entry with its known result.
Compound: CC1(C)CCC[C@]2(C)[C@H]3CCO[C@]3(C)CC[C@@H]12
Assigned Category: inactive
--
Compound: Cc1nc(-c2ccc(Cl)cc2)oc1COC(C)(C)C(=O)O
Assigned Category: inactive
--
Compound: CCCCOC(=O)CC
Assigned Category: inactive
--
Compound: O=C(O)[C@H](O)[C@@H](O)[C@H](O[C@@H]1O[C@H](CO)[C@H](O)[C@H](O)[C@H]1O)[C@H](O)CO
Assigned Category: inactive
--
Compound: O=C1CCc2ccc(OCCCCN3CCN(c4cccc(Cl)c4Cl)CC3)cc2N1
Assigned Category: active

Exercise: What did the test return for Cc1cc(C(C)(C)C)cc(C)c1CC1=NCCN1 ?
Key: inactive

Exercise: What did the test return for O=C(O)c1cc(O)c2ccccc2c1O ?
Key: active

Exercise: What did the test return for COc1c(C)c2c(c(O)c1C/C=C(\C)CCC(=O)OCCN1CCOCC1)C(=O)OC2 ?
Key: active

Exercise: What did the test return for COc1cc2nc(N3CCN(C(=O)c4ccco4)CC3)nc(N)c2cc1OC ?
Key: active

Exercise: What did the test return for CN1CCN(Cc2cc(-c3ccc4[nH]c(=O)oc4c3)co2)[C@@H](c2ccc(F)cc2)C1 ?
Key: active

Exercise: What did the test return for O=C(c1ccc(O)c(O)c1)c1ccc(O)cc1O ?
Key: active

Exercise: What did the test return for CNc1ccc([N+](=O)[O-])cc1 ?
Key: active

Exercise: What did the test return for CN(C)Cc1cc(C(C)(C)C)c(O)c(C(C)(C)C)c1 ?
Key: active

Exercise: What did the test return for CC(=O)CC(=O)Nc1ccc(S(=O)(=O)O)cc1 ?
Key: inactive

Exercise: What did the test return for CC(C)(C)NSc1nc2ccccc2s1 ?
Key: inactive

Exercise: What did the test return for COC(=O)c1ccccc1OC ?
Key: inactive

Exercise: What did the test return for CCOC(=O)Cn1cccc1-c1nc(-c2ccc(OC)cc2)c(-c2ccc(OC)cc2)s1 ?
Key: inactive
